Assay: gradient 5% acetonitrile 3 min, to 50% in 2 min, to 85% in 15 min, held 3 min, 100 µL/min
Details: column: Zorbax Extend-C18 2.1 x 50 mm; eluents: water / acetonitrile, 0.1% formic acid
Entry flag: True if RP-LC retention time reaches 900 s; False if it does not.

Request: Given CN(CC1COCCO1)c1ccc(C(=O)O)cc1NC(=O)c1ccc(Cl)cc1 (stereo not drawn) , state whether its RP-LC retention time is at least 900 s.
Result: False

Further cases:
Request: RP-LC retention time >= 900 s for O=C(CN1CCCCC1c1nc(-c2cccs2)no1)NCc1ccc(Cl)cc1 (stereo not drawn) ?
Result: True

Request: Dear colleague, could you confirm whether COc1ccc(OC)c(CNC(=O)Cc2nnc(-c3ccc4ncccc4c3)o2)c1 has RP-LC retention time at or above 900 s?
Result: False

Request: Check the entry COc1ccc(Cl)cc1S(=O)(=O)N1CCC(CN2CCCCC2)CC1 : does RP-LC retention time equal or exceed 900 s?
Result: False

Request: Exam item: decide whether the reported RP-LC retention time for CCSc1nc2ccc(NS(=O)(=O)c3ccc4c(c3)OCCO4)cc2s1 is at least 900 s.
Result: True

Request: Textbook exercise: given the entry Cc1ccc(N2CC(c3noc(-c4cccc(C)c4)n3)CC2=O)cc1 (stereo not drawn) , state whether its RP-LC retention time is greater than or equal to 900 s.
Result: True

Request: // inclusive: RP-LC retention time at least 900 s? input: CCc1nc(N)n(CC(=O)Nc2ccc(Cl)cc2)c(=O)c1C
Result: False

Request: I'd appreciate it if you could say whether Cc1ccccc1-c1noc(-c2nn(-c3cccc(F)c3)ccc2=O)n1 has RP-LC retention time at least equal to 900 s.
Result: True

Request: Dear colleague, could you confirm whether CCCN1C(=O)c2cc(S(=O)(=O)NCc3ccc(C)o3)ccc2Oc2cccnc21 has RP-LC retention time at or above 900 s?
Result: True

Request: State whether the measured RP-LC retention time reaches 900 s, counting equality as reaching it, for CCn1cc(-c2nc(CC(=O)Nc3ccc(F)c(Cl)c3)cs2)c2cccnc21
Result: True

Request: Entry CCCNC(=O)C1CCCN(c2ccc(SCC(=O)Nc3ccc(C(F)(F)F)cc3)nn2)C1 (stereo not drawn) : is its RP-LC retention time no less than 900 s?
Result: False

Request: Does the reported RP-LC retention time for COc1ccc(C(=O)CC2(O)C(=O)Nc3ccc(C)cc32)c(OC)c1OC (stereo not drawn) fall at or above the 900 s mark?
Result: False

Request: Confirm if RP-LC retention time reported for the compound CCCCNC(=O)c1cc(NS(=O)(=O)c2ccc(C(C)(C)C)cc2)cnc1N1CCNCC1 is 900 s or above.
Result: False

Request: Identify whether the reported RP-LC retention time of the following compound is 900 s or greater: CCC(C)N(CC(=O)N1CCc2sccc2C1COc1ccccc1C)C(=O)COC (stereo not drawn)
Result: True

Request: Given the entry Cc1cc(-c2nnc(NC(=O)c3ccn(C)n3)o2)c(C)o1 , answer whether its RP-LC retention time meets or surpasses 900 s.
Result: False

Request: Test whether the compound O=S(=O)(Nc1ccc(Cn2cncn2)cc1)c1ccc(Cl)cc1 records RP-LC retention time of 900 s or higher.
Result: False

Request: For this compound, is measured RP-LC retention time 900 s or higher? CCc1cccc(C)c1NC(=O)Cn1c(C)nc2c(sc3nc(-c4ccccc4)ccc32)c1=O
Result: True

* * *

Experiment: gradient 5% acetonitrile 3 min, to 50% in 2 min, to 85% in 15 min, held 3 min, 100 µL/min
Conditions: column: Zorbax Extend-C18 2.1 x 50 mm; eluents: water / acetonitrile, 0.1% formic acid
Readout name: RP-LC retention time (s)
Only the number, expressed in s, is required.

Here is how some compounds turned out for RP-LC retention time.
Request: Return RP-LC retention time for the following compound: CCn1c(=O)c2ccccc2n(Cc2nc(-c3ccccc3Br)no2)c1=O
Result: 1020

Request: For CCCn1cc(S(=O)(=O)Nc2ccc(F)c(F)c2)c2cccnc21 , write its RP-LC retention time.
Result: 898

Request: Please report RP-LC retention time for the following compound: COc1ccc(C2c3cc4c(c(OC)c3CC3OCC(=O)C32)OCO4)cc1OC (stereo not given)
Result: 609

Request: Give the reported RP-LC retention time for this compound. CCOc1ccc(S(=O)(=O)N2CCC(C(=O)N3CCCCCC3)CC2)cc1C
Result: 951

Now for a further compound.
Request: Answer with the recorded RP-LC retention time of COc1cccc(-c2csc(Nc3ccc(Br)cn3)n2)c1 only.
Result: 1170

* * *

Assay: gradient 5% acetonitrile 3 min, to 50% in 2 min, to 85% in 15 min, held 3 min, 100 µL/min
Conditions: column: Zorbax Extend-C18 2.1 x 50 mm; eluents: water / acetonitrile, 0.1% formic acid
Classify as follows. Reported RP-LC retention time greater than or equal to 800 s: yes (1). Reported RP-LC retention time below: no (0).

Known results for compounds:
Request: Record Cc1ccc(-c2cn3c(CC(=O)NCC(C)c4ccccc4)csc3n2)cc1C (stereo not given) ; criterion: RP-LC retention time no lower than 800 s. Met?
Result: yes (1)

Request: Kindly determine if RP-LC retention time recorded for COc1ccc(C(=O)CN(Cc2ccccc2)C2=NCCS2)cc1 is above or exactly 800 s.
Result: no (0)

Request: Please tell me: is the compound O=C(CN1C(=O)CCC1=O)N1CC(c2nc(-c3cnccn3)no2)C1 at or over 800 s in terms of RP-LC retention time?
Result: no (0)

Request: Is reported RP-LC retention time greater than or equal to 800 s here: COc1ccc(C)cc1Nc1nc(N)nc(CN2CCN(c3ccccn3)CC2)n1
Result: no (0)

Further cases:
Request: Identify whether the reported RP-LC retention time of the following compound is 800 s or greater: CCN1C(=O)c2cc(S(=O)(=O)NCc3ccccc3F)ccc2Oc2cccnc21
Result: yes (1)

Request: Assess whether reported RP-LC retention time for COc1cccc2c1OC1(C)CC2NC(=O)N1c1cccc(C(=O)O)c1 (stereo not given) sits at 800 s or higher.
Result: no (0)

Request: Can CCn1c(=O)c(C(=O)NC2CC2)nc2cc(C)c(C)cc21 be said to have RP-LC retention time at or above 800 s?
Result: yes (1)

Request: Record CCc1ccc(OCC(=O)Nc2nnc(SCc3nnc(-c4ccccc4C)o3)s2)cc1 ; criterion: RP-LC retention time no lower than 800 s. Met?
Result: yes (1)

* * *

Test: gradient 5% acetonitrile 3 min, to 50% in 2 min, to 85% in 15 min, held 3 min, 100 µL/min
Conditions: column: Zorbax Extend-C18 2.1 x 50 mm; eluents: water / acetonitrile, 0.1% formic acid
Readout name: RP-LC retention time (s)
Express the result in s but write the number alone.

Guide cases for RP-LC retention time, answers given:
Request: Entry O=C(NCCCN1CCCC1)c1ccc2ccnc(N3CCN(c4ccc(Cl)cc4)CC3)c2c1 needs its RP-LC retention time filled in; supply it.
Result: 639

Request: Using known records, supply RP-LC retention time for O=C(NCC1CCN(C(=O)Oc2ccccc2)CC1)C(=O)Nc1cccnc1
Result: 610

Request: Give RP-LC retention time for the following compound: Cc1nc(-c2ccc3c(c2)n(CC(=O)NCc2ccc4c(c2)OCO4)c(=O)n3C(C)C)no1
Result: 619

More entries:
Request: // fetch RP-LC retention time given entry O=C(N[C@H]1C[C@@H]2C[C@H]1N(C(=O)c1ccco1)C2)c1ccccc1
Result: 671

Request: Specify RP-LC retention time for O=C(Cn1cccc1-c1nc(-c2ccccc2)no1)N1CCc2ccccc21 and stop.
Result: 1110

* * *

Assay: gradient 5% acetonitrile 3 min, to 50% in 2 min, to 85% in 15 min, held 3 min, 100 µL/min
Conditions: column: Zorbax Extend-C18 2.1 x 50 mm; eluents: water / acetonitrile, 0.1% formic acid
Use true (1) when the recorded RP-LC retention time is no lower than 800 s; use false (0) when it is lower.

Use these answered entries as a reference point.
Request: Say whether COC(=O)c1c(C)[nH]c(C(=O)N2CCC(CC(=O)NCCN3CCCCC3C)CC2)c1C (stereo not given) shows RP-LC retention time of 800 s or more.
Result: false (0)

Request: Hi team, for O=C(Cn1c(=O)c2cc(-c3cccs3)nn2c2ncccc21)NCc1ccc(Cl)cc1 , is the recorded RP-LC retention time at or above 800 s?
Result: true (1)

Request: Please indicate if the recorded RP-LC retention time for O=C(c1cn(-c2cccc(Cl)c2)nn1)N1CCN(c2ccccc2F)CC1 meets or exceeds 800 s.
Result: true (1)

More entries:
Request: Form field: RP-LC retention time at least 800 s? Entry: COC(=O)c1cnc2nc(C)ccc2c1NCc1ccc2c(c1)OCO2
Result: false (0)

Request: Hello, I need to know if COc1ccc(Cl)cc1NC(=O)N1CCN(C2=CC3=NC(C)CN3C=N2)CC1 (stereo not given) has measured RP-LC retention time not below 800 s. Thanks!
Result: false (0)

Request: Has Cc1cccc(-c2noc(CCn3nc(-c4ccc5c(c4)OCO5)ccc3=O)n2)c1 a recorded RP-LC retention time greater than or equal to 800 s?
Result: true (1)

Request: Does RP-LC retention time meet or surpass 800 s for COCCOC1CCC12CCN(C(=O)c1ocnc1C)CC2 (stereo not given) ?
Result: false (0)

Request: Answer whether RP-LC retention time of COc1ccccc1NC(=O)N1CCCC(Cn2cnc3cccnc32)C1 (stereo not given) is greater than or equal to 800 s.
Result: false (0)

Request: Does RP-LC retention time meet or surpass 800 s for Cn1ncc2c(N3CCSCC3)nc(C(=O)N3CCOCC3)nc21 ?
Result: false (0)

Request: Form field: RP-LC retention time at least 800 s? Entry: COCCn1cc2c3c(cccc31)CN(C(=O)Nc1cc(F)cc(F)c1)CC2
Result: true (1)

Request: Is reported RP-LC retention time greater than or equal to 800 s here: Cc1nc(-c2cn(C(C)C)c3ncccc23)sc1C(=O)Nc1ccccc1F
Result: true (1)

Request: I'd appreciate it if you could say whether COC(=O)c1cc(C)nc2c1c(=O)n(Cc1ccc(C)cc1)c(=O)n2Cc1ccco1 has RP-LC retention time at least equal to 800 s.
Result: true (1)

Request: Item CC1=C(c2ccc(F)cc2)S(=O)(=O)N=C1N1CCCN(C(=O)C2CCCCC2)CC1 with RP-LC retention time of 800 s or above?
Result: true (1)

Request: Check this molecule for RP-LC retention time at or above 800 s: NC(=O)c1nsc2c(=O)n(CC(=O)NC3CCCC3)cnc12
Result: false (0)

Request: Quick check: does Clc1ccc(-c2nc3ccc(Cl)cn3c2Nc2ccc3c(c2)OCCO3)cc1 have RP-LC retention time greater than or equal to 800 s?
Result: true (1)
